System: CCRF-CEM leukemia
Test: NCI tumour cell line growth inhibition, 48 h
property: TGI

Recorded TGI, per entry:
molecule	property	endpoint result
COC(=O)C1SC(N(C)c2ccccc2)=NC12c1ccccc1Nc1ccccc12 (stereo unspecified)	TGI	57.7 µM
Cc1c(C)c(S(=O)(=O)N(CCCCCCN)OCCCN)c(C)c2c1OC(C)(C)CC2	TGI	> 20.9 µM
O=C(OC1C=C=CS(=O)(=O)CC#C/C=C\1)c1cnc2ccccc2n1 (stereo unspecified)	TGI	> 100 µM
COc1ccc(-n2sc3ncc(C)cc3c2=O)cc1	TGI	37.5 µM
CC(C)=C1C(=O)c2c(Cl)sc(Cl)c2C1=O	TGI	> 100 µM
CCCCCCC[CH2][Sn]([Cl])([Cl])[CH2]CCCCCCC	TGI	10.9 µM

**Query** State its TGI for this molecule: "CCOC(=O)c1sc2nc(SC)nc(Nc3ccc4c(c3)OCO4)c2c1N"
**Result** > 100 µM

**Query** State its TGI for this molecule: OC1(c2ccccc2)CSc2ncnn21 (stereo unspecified)
**Result** > 100 µM

**Query** State its TGI for this molecule: "O=c1nc2n(c3nsnc13)CCO2"
**Result** > 100 µM

**Query** State its TGI for this molecule: "COc1ccc(C(=O)Cc2ccc(Cl)cc2)cc1OC"
**Result** > 100 µM

**Query** State its TGI for this molecule: "N#Cc1nc(-c2ccccc2C(=O)O)oc1N"
**Result** > 100 µM

**Query** State its TGI for this molecule: COC12COC(=O)C1C(c1ccc3c(c1)OCO3)c1cc3c(cc1O2)OCO3 (stereo unspecified)
**Result** > 84.2 µM

**Query** State its TGI for this molecule: "O=C1Cc2ccccc2N1/N=C\c1ccc([N+](=O)[O-])cc1"
**Result** > 100 µM

**Query** State its TGI for this molecule: "COc1ccc(-c2c3ccccc3c(-c3ccc(OCCBr)cc3)c3ccccc23)cc1"
**Result** > 100 µM

**Query** State its TGI for this molecule: "COC(=O)c1cc(CC2Cc3cc4c(cc3C2)CCC4)cc2c1CCC2"
**Result** > 100 µM

**Query** State its TGI for this molecule: "CCN(CC)S(=O)(=O)c1ccc2nc(NC(=O)OC)[nH]c2c1"
**Result** > 100 µM

**Query** State its TGI for this molecule: "CCOC(=O)NN(C(=O)OCC)C(=C(c1ccccc1)N1CCOCC1)N(NC(=O)OCC)C(=O)OCC"
**Result** > 100 µM

**Query** State its TGI for this molecule: C=C1CC(Cn2cc(C)c(=O)[nH]c2=O)(c2ccc(Cl)cc2)OC1=O (stereo unspecified)
**Result** 4.01 µM

**Query** State its TGI for this molecule: "COc1cc(-c2ccc(N=Nc3c(S(=O)(=O)O)cc4cc(S(=O)(=O)O)cc(N)c4c3O)c(OC)c2)ccc1N=Nc1c(S(=O)(=O)O)cc2cc(S(=O)(=O)O)cc(N)c2c1O"
**Result** > 100 µM

**Query** State its TGI for this molecule: "c1ccc(N2CCN(CN3CCN(c4ccccc4)C3)C2)cc1"
**Result** > 100 µM

**Query** State its TGI for this molecule: CC(C)C(O)(C(=O)OCN1C(=O)C2C3C=CC(C2C1=O)C1C2C(=O)N(COC(=O)C(O)(C(C)C)C(C)O)C(=O)C2C31)C(C)O (stereo unspecified)
**Result** > 100 µM

###

// reported GI50 for each item listed
Tested on: SF-539 CNS

Recorded GI50, per entry:
> print(dat)
                                   compound  property  endpoint.result
1  O=C(Nc1ccc(OCc2nnc(-c3ccc(Cl)cc3)o2)c(F)c1)Nc1ccc(Cl)c(Cl)c1      GI50          6.92 µM
2   COC(=O)C(=Cc1ccccc1[N+](=O)[O-])C(=O)OC      GI50          2.63 µM
3  C=CCSSC1N=CNc2nc[nH]c21 (stereo not given)      GI50           2.6 µM
4  COc1ccc2c(c1)SC1=NNC(Cl)C(=O)N12 (stereo not given)      GI50          15.6 µM

Let us move to another entry and its GI50.
**Query** Print SF-539 CNS GI50 for COc1ccc(C(O)c2cc3c(N)c(C(=O)Nc4ccc(Br)cc4)sc3nc2C)cc1 (stereo not given) .
**Result** 2.08 µM

###

Tested on: OVCAR-3 ovarian
Assay: NCI tumour cell line growth inhibition, 48 h
Outcome label depends on TGI relative to 10 µM: at/above gives 1.0, below gives 0.0.

compound	group label
COC(=O)c1cc2cc(OC)c(OC)cc2cc(C(=O)OC)c1=O	1.0
COc1ccccc1N1CCN(CC(O)COc2c(Br)c(Br)c(Br)c3c2OC(C)(C)C3)CC1 (stereo not given)	1.0
COc1ccc(OC)c2c(C(=O)O)c(C(C)c3ccccc3)ccc12 (stereo not given)	1.0
CC12CCC3(C1)[C@H](CC2=O)C[C@@H](OC(=O)c1ccccc1)C1C(C)(CO)CCC[C@@]13C (stereo not given in full)	1.0
O=C1NC(c2cccc3ccccc23)Nc2ccc(O)cc21 (stereo not given)	1.0

**Query** # check: TGI of "Cc1ccc2cc3c(N)c4c(C)ccc(C)c4nc3nc2c1" is greater than or equal to 10 µM
**Result** 1.0

**Query** # check: TGI of C/C=C1/C[C@@H](C)[C@@](C)(O)C(=O)OCC2=CC[N+]3([O-])CC[C@@H](OC1=O)[C@@H]23 (stereo not given in full) is greater than or equal to 10 µM
**Result** 1.0

**Query** # check: TGI of "CCOC(=O)c1ccc2c(c1)c1c(C)c3cnccc3c(C)c1n2C" is greater than or equal to 10 µM
**Result** 0.0

**Query** # check: TGI of "CCN(CC)S(=O)(=O)c1ccc2nc(NC(=O)OC)[nH]c2c1" is greater than or equal to 10 µM
**Result** 1.0

**Query** # check: TGI of "C/C(=N/NC(=S)N1CCCCC1)c1cccc(/C(C)=N\NC(=S)N2CCCCC2)n1" is greater than or equal to 10 µM
**Result** 0.0

**Query** # check: TGI of "Cc1ccc2ccc(O)cc2c1" is greater than or equal to 10 µM
**Result** 1.0

**Query** # check: TGI of "O=C(/C=C/c1cccc(O)c1)c1cccc(-n2cc(-c3ccc(Cl)cc3)[nH]c2=O)c1" is greater than or equal to 10 µM
**Result** 0.0

**Query** # check: TGI of O=C(OC1C=C=CS(=O)(=O)CC#C/C=C\1)c1cnc2ccccc2n1 (stereo not given) is greater than or equal to 10 µM
**Result** 1.0

###

Test system: M14 melanoma
Experiment: NCI tumour cell line growth inhibition, 48 h
property: TGI

> print(dat)
                         compound  property  endpoint.result
1  CCOC(=O)Cc1cc(=O)oc2cc(O)ccc12       TGI         > 100 µM

**Query** State its TGI for this compound: C[C@]12CC[C@H](O)CC1=CC[C@@H]1C2CC[C@]2(C)NC(=O)C(C#N)CC12 (some centres not stated)
**Result** > 100 µM

**Query** State its TGI for this compound: "Cc1nc2ccccn2c1NC(=O)NNC(=S)Nc1ccc(Cl)cc1"
**Result** > 100 µM

**Query** State its TGI for this compound: "C[Si](C)(C)/N=C1\N2C(=NC1(C(F)(F)F)C(F)(F)F)Sc1ccccc12"
**Result** > 50 µM

**Query** State its TGI for this compound: "CCOP(=O)(OCC)/C(C#N)=C/c1coc2cc(C)cc(C)c2c1=O"
**Result** > 100 µM

**Query** State its TGI for this compound: "C/C(O)=c1\cc(C#N)c(=C(C#N)C#N)nc1C"
**Result** > 100 µM

**Query** State its TGI for this compound: "CCCOC(=O)c1ccc2c(c1)[N+](=O)C(C(=O)c1ccccc1)=C(C(F)(F)F)[N+]2=O"
**Result** 3.37 µM

###

Tested on: HOP-62 NSCLC
Assay: NCI tumour cell line growth inhibition, 48 h
property: TGI

> print(dat)
                                   compound  property  endpoint.result
1  CCOC(=O)C(NC(=O)c1ccccc1)(Nc1cc(C)on1)C(F)(F)F (stereo not drawn)       TGI         > 100 µM
2  C[Si](C)(C)/N=C1\N2C(=NC1(C(F)(F)F)C(F)(F)F)Sc1ccccc12       TGI          > 50 µM

Let us move to another entry and its TGI.
**Query** State its TGI for this compound: "Cc1ccc(-c2c3c(nn2-c2ccc(S(=O)(=O)NC(=O)Nc4ccccc4)cc2)-c2ccccc2C3)cc1"
**Result** > 100 µM
